Measured pIC50 by item
- Study System: UniProt Q8NI77
- Sequence (Q8NI77 whole entry): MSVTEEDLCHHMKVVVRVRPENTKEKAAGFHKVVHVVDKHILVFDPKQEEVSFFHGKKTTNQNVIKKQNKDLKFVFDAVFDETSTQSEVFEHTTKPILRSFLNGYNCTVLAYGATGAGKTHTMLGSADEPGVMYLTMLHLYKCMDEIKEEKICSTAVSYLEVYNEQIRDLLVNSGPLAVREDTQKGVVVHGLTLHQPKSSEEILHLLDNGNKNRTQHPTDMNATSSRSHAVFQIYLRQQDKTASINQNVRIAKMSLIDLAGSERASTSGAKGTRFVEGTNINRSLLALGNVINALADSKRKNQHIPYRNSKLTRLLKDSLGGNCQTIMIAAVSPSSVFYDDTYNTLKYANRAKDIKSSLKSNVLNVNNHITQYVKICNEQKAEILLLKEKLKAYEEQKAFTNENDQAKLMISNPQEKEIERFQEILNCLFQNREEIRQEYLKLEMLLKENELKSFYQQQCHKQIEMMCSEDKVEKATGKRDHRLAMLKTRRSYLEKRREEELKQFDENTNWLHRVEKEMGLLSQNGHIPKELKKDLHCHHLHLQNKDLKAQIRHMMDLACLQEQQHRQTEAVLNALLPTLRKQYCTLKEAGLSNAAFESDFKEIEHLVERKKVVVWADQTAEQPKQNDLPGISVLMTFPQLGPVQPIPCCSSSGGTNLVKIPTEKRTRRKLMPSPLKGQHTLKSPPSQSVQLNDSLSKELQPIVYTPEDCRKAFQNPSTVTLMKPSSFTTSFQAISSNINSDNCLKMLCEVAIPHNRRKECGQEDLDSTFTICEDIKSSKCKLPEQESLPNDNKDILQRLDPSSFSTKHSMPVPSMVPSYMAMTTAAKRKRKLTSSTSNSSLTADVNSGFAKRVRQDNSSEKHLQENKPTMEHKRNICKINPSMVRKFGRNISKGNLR
- Sequence (P02550 whole entry partner): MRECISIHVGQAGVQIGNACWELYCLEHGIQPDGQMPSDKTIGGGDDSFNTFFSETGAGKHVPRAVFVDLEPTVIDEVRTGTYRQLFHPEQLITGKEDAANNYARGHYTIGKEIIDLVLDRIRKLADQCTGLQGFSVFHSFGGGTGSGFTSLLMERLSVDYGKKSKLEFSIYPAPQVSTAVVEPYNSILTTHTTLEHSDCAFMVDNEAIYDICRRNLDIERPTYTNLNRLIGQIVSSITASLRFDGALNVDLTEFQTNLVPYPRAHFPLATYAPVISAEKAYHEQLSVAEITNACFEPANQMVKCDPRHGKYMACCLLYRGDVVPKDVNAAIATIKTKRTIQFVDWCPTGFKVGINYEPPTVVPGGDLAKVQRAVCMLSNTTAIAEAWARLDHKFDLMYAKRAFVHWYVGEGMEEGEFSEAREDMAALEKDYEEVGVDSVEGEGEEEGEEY
- Sequence (P02554 whole entry partner): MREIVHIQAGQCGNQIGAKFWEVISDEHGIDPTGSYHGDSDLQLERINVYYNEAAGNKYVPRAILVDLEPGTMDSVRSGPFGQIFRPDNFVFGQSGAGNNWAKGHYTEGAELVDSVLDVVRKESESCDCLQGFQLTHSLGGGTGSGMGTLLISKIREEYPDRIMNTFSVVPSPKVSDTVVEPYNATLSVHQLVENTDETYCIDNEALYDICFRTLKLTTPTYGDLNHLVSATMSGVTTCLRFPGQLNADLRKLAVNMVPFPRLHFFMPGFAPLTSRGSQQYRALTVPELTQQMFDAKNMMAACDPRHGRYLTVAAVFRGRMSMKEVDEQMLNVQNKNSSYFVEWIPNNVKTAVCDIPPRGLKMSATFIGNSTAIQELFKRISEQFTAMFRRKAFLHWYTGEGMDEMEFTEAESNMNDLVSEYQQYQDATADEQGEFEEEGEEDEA
pIC50: −log10 of the molar value.

In the examples that follow, each entry is paired with its recorded pIC50.
COc1ccc(C(=O)Nc2ccc(NS(=O)(=O)CCO)cc2N2CCC(=C(F)F)CC2)c2cc3n(c12)CC(C)(C)OC3 [Example 566]
≥ 7.30
O=C(Nc1cccc2c1cc1n2CCOC1=O)c1ccc(NS(=O)(=O)CCO)cc1N1CCC2(CC1)CC2 [Example 346]
6.30 to 7.30

Moving on to another compound below.
pIC50 of Nc1cc(NS(=O)(=O)CCO)cc(N2CCC3(CC2)CC3)c1C(=O)Nc1cccc(N2CCC(F)(F)CC2)c1 [Example 1] , assay on UniProt Q8NI77, is ≥ 7.30
